Test system: IGROV-1
Test: Cytotoxicity against human IGROV1 cells
Assay type: functional
Returns: string. Value is condition met if measured GI50 is below 2 µM, and condition not met if it is greater than or equal to it.

- compoundStructure: "CC1(C)[C@H](O)CC[C@@]2(C)Oc3c(O)cc(/C=C/c4cc(O)c5cc[nH]c5c4)cc3C[C@H]12"
  assignedClass: "condition not met"
- compoundStructure: "COc1cc(/C=C/c2cc(OC)c3c(CC=C(C)C)c[nH]c3c2)cc2c1O[C@]1(C)CC[C@@H](O)C(C)(C)[C@H]1C2"
  assignedClass: "condition met"
- compoundStructure: "COc1cc(/C=C/c2cc(O)c3c(c2)C[C@@H]2C(C)(C)[C@H](O)CC[C@@]2(C)O3)cc2[nH]cc(CC=C(C)C)c12"
  assignedClass: "condition not met"
- compoundStructure: "COc1cc(/C=C/c2cc(OC)c3c(C/C=C(\\C)CCC=C(C)C)c[nH]c3c2)cc2c1O[C@]1(C)CC[C@@H](O)C(C)(C)[C@H]1C2"
  assignedClass: "condition not met"
- compoundStructure: "COc1cc(/C=C/c2cc(O)c3cc[nH]c3c2)cc2c1O[C@]1(C)CC[C@@H](O)C(C)(C)[C@H]1C2"
  assignedClass: "condition not met"
- compoundStructure: "COc1cc(/C=C/c2cc(O)c3c(c2)C[C@@H]2C(C)(C)[C@H](O)CC[C@@]2(C)O3)cc2c1ccn2C"
  assignedClass: "condition not met"
- compoundStructure: "COc1cc(/C=C/c2cc(OC)c3cc[nH]c3c2)cc2c1O[C@]1(C)CC[C@@H](O)C(C)(C)[C@H]1C2"
  assignedClass: "condition met"
- compoundStructure: "COc1cc(/C=C/c2cc(O)c3cc(CC=C(C)C)[nH]c3c2)cc2c1O[C@]1(C)CC[C@@H](O)C(C)(C)[C@H]1C2"
  assignedClass: "condition not met"
- compoundStructure: "COc1cc(/C=C/c2cc(OC)c3ccn(C)c3c2)cc2c1O[C@]1(C)CC[C@@H](O)C(C)(C)[C@H]1C2"
  assignedClass: "condition not met"
- compoundStructure: "COc1cc(/C=C/c2cc(O)c3c(C/C=C(\\C)CCC=C(C)C)c[nH]c3c2)cc2c1O[C@]1(C)CC[C@@H](O)C(C)(C)[C@H]1C2"
  assignedClass: "condition met"
- compoundStructure: "COc1cc(/C=C/c2cc(O)c3c(CC=C(C)C)c[nH]c3c2)cc2c1O[C@]1(C)CC[C@@H](O)C(C)(C)[C@H]1C2"
  assignedClass: "condition met"
- compoundStructure: "COc1cc(/C=C/c2cc(O)c3ccn(C)c3c2)cc2c1O[C@]1(C)CC[C@@H](O)C(C)(C)[C@H]1C2"
  assignedClass: "condition not met"
